Data origin: ChEMBL document CHEMBL1909637

Biological target: UniProtKB P14902
Assay: Inhibition of human recombinant indoleamine-2,3-dioxygenase expressed in Escherichia coli BL21 using L-tryptophan as substrate after 30 mins by microplate reader analysis
Conditions: read-out: IC50
Measured parameter: log10 IC50 (log10 of the value in µM)

{"Given smiles": "Clc1ccc(-c2c[nH]nn2)cc1", "Tested system": "UniProtKB P14902", "log10 IC50": 2.91}
{"Given smiles": "c1ccc2[nH]nnc2c1", "Tested system": "UniProtKB P14902", "log10 IC50": 3.41}
{"Given smiles": "O=[N+]([O-])c1ccc(-c2nn[nH]c2[N+](=O)[O-])cc1", "Tested system": "UniProtKB P14902", "log10 IC50": 2.73}
{"Given smiles": "Brc1ccccc1-c1c[nH]nn1", "Tested system": "UniProtKB P14902", "log10 IC50": 2.17}
{"Given smiles": "CCOC(=O)c1cn(-c2ccc(Cl)cc2)nn1", "Tested system": "UniProtKB P14902", "log10 IC50": 3.30}
{"Given smiles": "COc1ccc(-c2c[nH]nn2)cc1", "Tested system": "UniProtKB P14902", "log10 IC50": 3.78}
{"Given smiles": "COc1ccccc1-c1c[nH]nn1", "Tested system": "UniProtKB P14902", "log10 IC50": 3.01}
{"Given smiles": "Clc1ccccc1-c1c[nH]nn1", "Tested system": "UniProtKB P14902", "log10 IC50": 1.93}
{"Given smiles": "Brc1ccc(-c2c[nH]nn2)cc1", "Tested system": "UniProtKB P14902", "log10 IC50": 3.10}
{"Given smiles": "Fc1ccc(-c2c[nH]nn2)cc1", "Tested system": "UniProtKB P14902", "log10 IC50": 2.76}
{"Given smiles": "c1cncc(-c2c[nH]nn2)c1", "Tested system": "UniProtKB P14902", "log10 IC50": 2.85}
{"Given smiles": "Ic1nn[nH]c1-c1ccccc1", "Tested system": "UniProtKB P14902", "log10 IC50": 3.14}
{"Given smiles": "Cc1ccc(-c2[nH]nnc2Br)cc1", "Tested system": "UniProtKB P14902", "log10 IC50": 3.01}

* * *

Below, each entry is listed alongside its reported IC50.
Target: Indoleamine 2,3-dioxygenase 1 (Homo sapiens)
Sequence (P14902 whole entry): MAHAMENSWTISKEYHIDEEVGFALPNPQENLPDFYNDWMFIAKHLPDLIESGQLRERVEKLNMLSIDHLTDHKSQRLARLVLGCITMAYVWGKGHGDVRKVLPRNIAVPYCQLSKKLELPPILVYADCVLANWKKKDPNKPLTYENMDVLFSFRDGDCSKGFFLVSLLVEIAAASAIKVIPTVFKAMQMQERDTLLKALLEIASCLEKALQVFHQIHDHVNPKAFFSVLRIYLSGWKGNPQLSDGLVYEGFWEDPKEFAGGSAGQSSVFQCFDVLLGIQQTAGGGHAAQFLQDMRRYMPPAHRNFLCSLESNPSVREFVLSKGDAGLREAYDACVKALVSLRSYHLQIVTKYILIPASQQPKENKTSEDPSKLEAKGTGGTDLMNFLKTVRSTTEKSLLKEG
Assay: Inhibition of indoleamine-2,3-dioxygenase in human HEK293 cells assessed as N-formylkynurenine level after 5 hrs by spectrophotometric analysis
Format: cell-based
Measured parameter: IC50 (µM)

{"Given smiles": "Clc1ccccc1-c1c[nH]nn1", "Tested system": "Indoleamine 2,3-dioxygenase 1 (Homo sapiens)", "Measured parameter": "IC50", "Number": 19.3}
{"Given smiles": "Brc1ccccc1-c1c[nH]nn1", "Tested system": "Indoleamine 2,3-dioxygenase 1 (Homo sapiens)", "Measured parameter": "IC50", "Number": 31.6}
